Data provenance is patent US20210355194A1.

Biological target: CV S-protein construct 6 trimer TP31001F (SARS-CoV-2, UniProt P0DTC2 14-1208)
Assay: SPR
Listed here are binders together with their documented log10(Kd).
READOUT LABEL: log10(Kd) (log10 of the value in nM)

binder="variant 6-42 (Fc fusion) VHH: EVQLVESGGGLVQPGGSLRLSCAASGDTYGSYWMGWFRQAPGKEREFVAVITSGGSTNYADSVKGRFTISADNSKNTAYLQMNSLKPEDTAVYYCTHVQNSYYYAMDVWGQGTLVTVSS" readout_label=log10(Kd) assay_result=0.89
binder="variant 6-37 (Fc fusion) VHH: EVQLVESGGGLVQPGGSLRLSCAASGHTFSTSWMGWFRQAPGKEREFVATINSLGGTNYADSVKGRFTISADNSKNTAYLQMNSLKPEDTAVYYCARVSSGDYGMDVWGQGTLVTVSS" readout_label=log10(Kd) assay_result=-0.15
binder="variant 5-22 (Fc fusion) VHH: EVQLVESGGGLVQPGGSLRLSCAASGFTFNVFAMGWFRQAPGKEREFVAAINWSDSRTDYADSVKGRFTISADNSKNTAYLQMNSLKPEDTAVYYCASGSDNRARELSRYEYVWGQGTLVTVSS" readout_label=log10(Kd) assay_result=0.86
binder="variant 6-18 (Fc fusion) VHH: EVQLVESGGGLVQPGGSLRLSCAASGLTFRNYAMGWFRQAPGKEREFIAGMMWSGGTTTYADSVKGRFTISADNSKNTAYLQMNSLKPEDTAVYYCAREGYYYDSSGYLNYFDYWGQGTLVTVSS" readout_label=log10(Kd) assay_result=0.72
binder="variant 6-70 (Fc fusion) VHH: EVQLVESGGGLVQPGGSLRLSCAASGFNLDDYADMGWFRQAPGKEREFVAAIGWGGGSTRYADSVKGRFTISADNSKNTAYLQMNSLKPEDTAVYYCAREILWFGEFGEPNVWGQGTLVTVSS" readout_label=log10(Kd) assay_result=0.04
binder="variant 6-72 (Fc fusion) VHH: EVQLVESGGGLVQPGGSLRLSCAASGSTLSINAMGWFRQAPGKEREFVAAIDWSGGSTAYADSVKGRFTISADNSKNTAYLQMNSLKPEDTAVYYCARDSSATRTGPDYWGQGTLVTVSS" readout_label=log10(Kd) assay_result=0.30
binder="variant 6-16 (Fc fusion) VHH: EVQLVESGGGLVQPGGSLRLSCAASGFTFDDAAMGWFRQAPGKEREFVAHISWSGGSTYYADSVKGRFTISADNSKNTAYLQMNSLKPEDTAVYYCATFGATVTATNDAFDIWGQGTLVTVSS" readout_label=log10(Kd) assay_result=0.34
binder="variant 6-40 (Fc fusion) VHH: EVQLVESGGGLVQPGGSLRLSCAASGFTFSDYWMGWFRQAPGKERELVARVWWNGGSAYYADSVKGRFTISADNSKNTAYLQMNSLKPEDTAVYYCAREVLRQQVVLDYWGQGTLVTVSS" readout_label=log10(Kd) assay_result=0.28
